The measured values listed here are drawn from patent US20070059364A1.

Each entry below carries its recorded melting point.

| MOLECULE | melting point |
| --- | --- |
| Cc1cccc2c1N(C1CCN(CC(=O)Nc3ccc(Oc4ccccc4)cc3)CC1)C(=O)OC2.Cl | 162 to 167 °C |
| Cc1ccc2c(c1)COC(=O)N2C1CCN(CC(=O)Nc2ccc3c(c2)C(=O)c2ccccc2-3)CC1.Cl | 281 to 285 °C |
| Cc1cccc2c1N(C1CCN(CC(=O)Nc3ccc(C#N)cc3)CC1)C(=O)OC2.Cl | 229 to 234 °C |
| Cl.O=C(CN1CCC(N2C(=O)OCc3ccccc32)CC1)Nc1ccccc1 | 262 to 272 °C |
| CN(C)CCn1ccc2cc(NS(=O)(=O)c3cccc(Br)c3)ccc21 [Example 13e] | 114 to 116 °C |
| Cc1cc2cc(NS(=O)(=O)c3ccc4ccccc4c3)ccc2n1CCN(C)C | 199 to 200 °C |
| Cc1cccc2c1N(C1CCN(CC(=O)Nc3ccccc3)CC1)C(=O)OC2.Cl | 232 to 239 °C |
| CN1CCN(CCc2c[nH]c3ccc(NS(=O)(=O)c4cccc5c(Cl)cccc45)cc23)CC1 [Example 53c] | 246 to 249 °C |
| Cc1c(S(=O)(=O)Nc2ccc3c(c2)cc(C)n3CCN(C)C)sc2ccc(Cl)cc12 [Example 32e] | 203 to 205 °C |
